- target-or-system: Protein deacetylase HDAC6 (Homo sapiens)
- Sequence (Q9UBN7 whole entry): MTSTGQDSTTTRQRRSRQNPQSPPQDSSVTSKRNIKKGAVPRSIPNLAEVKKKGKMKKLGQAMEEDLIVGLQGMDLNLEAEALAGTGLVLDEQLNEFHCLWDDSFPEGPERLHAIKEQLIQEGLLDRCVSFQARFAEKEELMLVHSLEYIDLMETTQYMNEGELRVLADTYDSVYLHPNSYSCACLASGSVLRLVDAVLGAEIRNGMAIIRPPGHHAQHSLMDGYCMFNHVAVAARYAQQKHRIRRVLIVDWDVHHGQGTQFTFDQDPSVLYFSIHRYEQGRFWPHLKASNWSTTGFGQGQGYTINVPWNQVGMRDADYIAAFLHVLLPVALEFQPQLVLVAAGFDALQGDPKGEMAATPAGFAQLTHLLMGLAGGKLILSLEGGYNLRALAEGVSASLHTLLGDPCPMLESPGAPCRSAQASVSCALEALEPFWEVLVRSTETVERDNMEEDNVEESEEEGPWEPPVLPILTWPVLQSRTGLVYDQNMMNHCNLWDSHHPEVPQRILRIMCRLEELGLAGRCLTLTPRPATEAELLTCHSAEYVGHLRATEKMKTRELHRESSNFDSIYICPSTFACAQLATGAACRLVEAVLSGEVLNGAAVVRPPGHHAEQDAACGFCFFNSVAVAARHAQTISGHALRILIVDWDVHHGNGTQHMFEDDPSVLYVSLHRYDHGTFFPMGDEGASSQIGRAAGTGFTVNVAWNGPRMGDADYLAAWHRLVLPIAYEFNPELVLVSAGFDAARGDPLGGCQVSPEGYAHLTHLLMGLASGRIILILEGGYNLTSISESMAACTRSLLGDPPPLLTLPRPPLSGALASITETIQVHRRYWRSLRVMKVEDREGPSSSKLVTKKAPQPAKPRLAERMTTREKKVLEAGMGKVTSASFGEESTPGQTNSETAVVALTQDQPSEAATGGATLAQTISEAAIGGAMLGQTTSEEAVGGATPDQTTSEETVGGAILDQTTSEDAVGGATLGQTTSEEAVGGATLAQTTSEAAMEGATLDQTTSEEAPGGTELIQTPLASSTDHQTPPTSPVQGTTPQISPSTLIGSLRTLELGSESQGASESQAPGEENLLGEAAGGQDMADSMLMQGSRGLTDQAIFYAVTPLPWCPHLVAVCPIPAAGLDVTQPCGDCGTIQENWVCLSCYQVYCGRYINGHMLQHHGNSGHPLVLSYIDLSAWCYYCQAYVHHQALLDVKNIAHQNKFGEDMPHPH
- protocol-details: Inhibition of human recombinant HDAC6
result-type: pIC50
Numbers only, as −log10 of the molar value.

Task: Can you look up the measured pIC50 of O=C(C=C1c2ccccc2-c2ccccc21)NCCCCCC(=O)NO for me?
Output: 8.70

* * *

- target-or-system: Histone deacetylase
- protocol-details: Inhibition of HDAC from human HeLa cells
- Assay type: cell-based
result-type: IC50
Returns: string containing the numeric result and its unit.

# molecule, target-or-system, IC50
measured = [
    ("O=C(/C=C/c1ccc2ccccc2c1)NCCCCCC(=O)NO", "Histone deacetylase", "0.007 µM"),
]

State recorded IC50 for all listed molecules.
1. O=C(CCCCCCCNC(=O)c1ccc2ccccc2c1)NO
2. O=C(C=C1c2ccccc2CCc2ccccc21)NCCCCCC(=O)NO
3. CC(/C=C/C(=O)NCCCC(=O)NO)=C\c1ccccc1
4. O=C(CCCCCNC(=O)c1ccc(-c2ccccc2)cc1)NO
5. O=C(/C=C/c1ccccn1)NCCCCCC(=O)NO.O=C(O)C(=O)O

Output:
1. 0.028 µM
2. 0.338 µM
3. 22.85 µM
4. 0.038 µM
5. 0.046 µM

State recorded IC50 for all listed molecules.
1. O=C(C#Cc1ccccc1)NCCCCCC(=O)NO
2. O=C(CCCCCNC(=O)CC/C=C/c1ccccc1)NO
3. O=C(/C=C/c1cccc2cccnc12)NCCCCCC(=O)NO
4. O=C(/C=C/c1cccnc1)NCCCCCC(=O)NO.O=C(O)C(=O)O
5. O=C(C=C(c1ccccc1)c1ccccc1)NCCCCCC(=O)NO

Output:
0.062 µM
0.625 µM
0.025 µM
0.141 µM
0.201 µM

State recorded IC50 for all listed molecules.
1. O=C(/C=C/c1ccccc1)NCCCCCC(=O)NO
2. O=C(/C=C/C=C/c1ccccc1)NCCCCCC(=O)NO
3. O=C(/C=C/c1ccncc1)NCCCCCC(=O)NO.O=C(O)C(=O)O
4. O=C(C=C1c2ccccc2-c2ccccc21)NCCCCCC(=O)NO

Output:
["0.032 µM", "0.029 µM", "0.101 µM", "0.005 µM"]

Reference for the values: ChEMBL document CHEMBL1137690
